Measured values drawn from patent CN114106174A for this set.

Y586通道PE荧光值 for assorted binders
# Tgt: T1, OX40 on OX40-overexpressing cells (OX40过表达细胞表面OX40) (UniProt P43489 29-277, limits assumed)
# T1 construct: whole, on cells; The cell line and the construct of the overexpressing cells are not described; also called CD134; TNFRSF4
# T1 sequence (looked up): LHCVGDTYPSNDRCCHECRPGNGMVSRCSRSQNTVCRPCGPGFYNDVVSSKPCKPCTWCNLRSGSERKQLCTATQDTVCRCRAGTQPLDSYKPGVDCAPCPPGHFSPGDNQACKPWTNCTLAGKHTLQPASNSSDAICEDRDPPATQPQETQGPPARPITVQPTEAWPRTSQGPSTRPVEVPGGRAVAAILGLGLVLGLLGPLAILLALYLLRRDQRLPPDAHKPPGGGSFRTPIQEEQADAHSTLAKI
# Assay Comment: flow cytometry, hybridoma supernatant on OX40-overexpressing cells, goat anti-mouse IgG-PE
Just the number, please, no unit after it.

Known Y586通道PE荧光值 results, listed for orientation:
Tell me its Y586通道PE荧光值 given 29B8-3 (antibody, V domains shown) VH: QVQLQESGPGLVKPSGTLSLTCAVSGVSISSSNWWSWVRQPPGKGLEWIGEIYHSGNTNYNPSLKSRVTISVDKSKNQFSLKLSSVTAADTAVYYCAETSTITTNYWGQGTLVTVSS VL: DIQMTQSPSSLSASVGDRVTITCRASQTISSYLNWYQQKPGKAPKLLIYAASSLQSGVPSRFSGSESGTDFTLTISSLQPEDFATYYCQQTYSIPITFGQGTRLEIKR as the entry.
388000

Tell me its Y586通道PE荧光值 given 48D10-5 (antibody, V domains shown) VH: QVQLVQSGAEVKKPGASMKVSCKASGYTFANFGINWVRQAPGQGLEWMGWISAYNGYTNYAQQFQGRITMTTDTSTSTAYMELRSLRSDDTAIYYCVIWFGELLSFDYWGQGTLVTVSS VL: DIQMTQFPSSLSASVGDRVTITCRASQDISNYLAWFQQKPGKAPKSLIYAASSLQSGVPSKFSGNGFGTDFTFPLSRMQPEDFASSYCQQYNNYTFTFGRGTKVEIKR as the entry.
358000

Tell me its Y586通道PE荧光值 given 23C4-1-5 (antibody, V domains shown) VH: QVQLQESGPGLVKPSGTLSLTCAVSGGSISSSNWWSWVRQPPGKGLEWIGEIYHSGSTTYNPSLKSRVTISVDKSKSQISLKLTSVTAADTAVYYCARGDVLLWFGGRGTLVTVSS VL: EIVLTQSPGTLSLSPGERASLSCRASQSVSSNYLAWYQQKPGQTPRLLIYGASIRATGIPDRFSGSGSGTDFTLIISRLEPEDFAVYYCQQYSSSPITFGQGTRLEIKR as the entry.
63900

Then there is this binder:
Tell me its Y586通道PE荧光值 given 38D9-12 (antibody, V domains shown) VH: QVQLQESGPGLVKPSGTLSLTCAVSGDSISSTNWWSWVRQPPGKGLEWIGEINHNGSTYYNPSLKSRVTISVDKSKNQFSLKLRSVTAADTAVYYCAREDYYYMDVWGKGTTVTVSS VL: DIQMTQSPSSLSASVGDRVTITCRTSQGIWNDLGWYQQKPGKAPKRLIYAASSLQSGVPSRFSGSESGTEFTLTISSLQPEDFATYYCLQYNNYPLTFGGGTKVEIKR as the entry.
243000
